test: Volume of distribution in dog at 2 mg/kg, iv and 5 mg/kg, po; type: ADME, organism-based, Canis lupus familiaris; conditions: in vivo
MEASURE_NAME: Vd (L/kg)

{"CHEMICAL_STRING": "COc1ccc(-c2ccc(Cn3c(CC(C)(C)C(=O)O)c(SC(C)(C)C)c4cc(OCc5ccccn5)ccc43)cc2)cn1", "MEASURE_NAME": "Vd", "OUTPUT_UNIT": "L/kg", "OBSERVED_MEASUREMENT": 0.41}

---

target: UniProt:P08684; assay: Inhibition of CYP3A4 assessed as inhibition rate
Sequence (P08684 whole entry): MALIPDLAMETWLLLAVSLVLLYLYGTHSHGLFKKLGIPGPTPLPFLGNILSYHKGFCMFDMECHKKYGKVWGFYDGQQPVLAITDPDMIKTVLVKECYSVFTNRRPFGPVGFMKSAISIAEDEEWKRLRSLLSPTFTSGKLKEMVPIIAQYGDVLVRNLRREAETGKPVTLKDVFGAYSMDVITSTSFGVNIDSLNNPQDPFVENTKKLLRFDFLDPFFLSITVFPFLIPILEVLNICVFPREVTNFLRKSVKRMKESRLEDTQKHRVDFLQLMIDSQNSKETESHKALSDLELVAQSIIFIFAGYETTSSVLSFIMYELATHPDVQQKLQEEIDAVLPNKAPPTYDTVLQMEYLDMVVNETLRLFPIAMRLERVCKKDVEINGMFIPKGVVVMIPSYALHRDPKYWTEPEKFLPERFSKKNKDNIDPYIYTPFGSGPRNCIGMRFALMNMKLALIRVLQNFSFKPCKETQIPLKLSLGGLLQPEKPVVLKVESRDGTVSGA
Catalogue of TDI readings, one per entry.

{"CHEMICAL_STRING": "CC(C)(C)Sc1c(CC(C)(C)C(=O)O)n(Cc2ccc(Cl)cc2)c2ccc(OCc3ccc4ccccc4n3)cc12", "TDI (min⁻¹)": 0.009}
{"CHEMICAL_STRING": "COc1ccc(-c2ccc(Cn3c(CC(C)(C)C(=O)O)c(SC(C)(C)C)c4cc(OCc5ccccn5)ccc43)cc2)cn1", "TDI (min⁻¹)": 0.015}
{"CHEMICAL_STRING": "Cc1cnc(-c2ccc(Cn3c(CC(C)(C)C(=O)O)c(SC(C)(C)C)c4cc(OCc5ccccn5)ccc43)cc2)s1", "TDI (min⁻¹)": 0.014}
{"CHEMICAL_STRING": "CC(C)(C)Sc1c(CC(C)(C)C(=O)O)n(Cc2ccc(-c3nccs3)cc2)c2ccc(OCc3ccccn3)cc12", "TDI (min⁻¹)": 0.033}
{"CHEMICAL_STRING": "Cc1csc(-c2ccc(Cn3c(CC(C)(C)C(=O)O)c(SC(C)(C)C)c4cc(OCc5ccccn5)ccc43)cc2)n1", "TDI (min⁻¹)": 0.006}
{"CHEMICAL_STRING": "COc1nc(-c2ccc(Cn3c(CC(C)(C)C(=O)O)c(SC(C)(C)C)c4cc(OCc5ccccn5)ccc43)cc2)cs1", "TDI (min⁻¹)": 0.018}

---

The listing below reports IC50 for compounds tested on Cytochrome P450 2D6 (Homo sapiens).
Sequence (P10635 whole entry): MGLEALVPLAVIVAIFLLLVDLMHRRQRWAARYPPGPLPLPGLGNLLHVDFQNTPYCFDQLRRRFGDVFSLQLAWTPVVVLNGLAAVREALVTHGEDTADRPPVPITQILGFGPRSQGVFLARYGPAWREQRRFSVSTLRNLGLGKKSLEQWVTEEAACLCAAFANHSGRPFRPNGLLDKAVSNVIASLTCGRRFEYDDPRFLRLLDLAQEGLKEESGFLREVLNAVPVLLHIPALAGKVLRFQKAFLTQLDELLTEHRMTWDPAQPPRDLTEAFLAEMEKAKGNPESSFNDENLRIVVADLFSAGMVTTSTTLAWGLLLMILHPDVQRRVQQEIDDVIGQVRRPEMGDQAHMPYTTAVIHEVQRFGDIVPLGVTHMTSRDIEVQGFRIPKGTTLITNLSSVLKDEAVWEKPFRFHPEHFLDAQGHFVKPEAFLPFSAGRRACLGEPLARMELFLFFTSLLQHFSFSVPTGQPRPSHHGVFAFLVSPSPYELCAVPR

{"CHEMICAL_STRING": "COc1ccc(-c2ccc(Cn3c(CC(C)(C)C(=O)O)c(SC(C)(C)C)c4cc(OCc5ccccn5)ccc43)cc2)nc1", "IC50": "> 10 µM"}
{"CHEMICAL_STRING": "COc1ccc(-c2ccc(Cn3c(CC(C)(C)C(=O)O)c(SC(C)(C)C)c4cc(OCc5ccccn5)ccc43)cc2)cn1", "IC50": "> 30 µM"}
{"CHEMICAL_STRING": "COc1ccc(-c2ccc(Cn3c(CC(C)(C)C(=O)O)c(SC(C)(C)C)c4cc(OCc5ccccn5)ccc43)cc2)nn1", "IC50": "> 30 µM"}

---

The listing below reports pIC50 for compounds tested on Arachidonate 5-lipoxygenase-activating protein (Homo sapiens).
Sequence (P20292 whole entry): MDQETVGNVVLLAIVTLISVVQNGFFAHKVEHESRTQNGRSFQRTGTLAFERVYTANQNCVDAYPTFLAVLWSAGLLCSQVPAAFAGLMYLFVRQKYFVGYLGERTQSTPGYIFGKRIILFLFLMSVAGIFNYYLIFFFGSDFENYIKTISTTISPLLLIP
pIC50: −log10 of the molar value.

{"CHEMICAL_STRING": "CC(C)(C)Sc1c(CC(C)(C)C(=O)O)n(Cc2ccc(-c3ncc(F)s3)cc2)c2ccc(OCc3ccccn3)cc12", "pIC50": 8.68}
{"CHEMICAL_STRING": "COc1ccc(-c2ccc(Cn3c(CC(C)(C)C(=O)O)c(SC(C)(C)C)c4cc(OCc5ccccn5)ccc43)cc2)nn1", "pIC50": 8.40}
{"CHEMICAL_STRING": "CC(C)(C)Sc1c(CC(C)(C)C(=O)O)n(Cc2ccc(-c3nccs3)cc2)c2ccc(OCc3ccccn3)cc12", "pIC50": 8.32}
